B1: SPATS1 (parent)
chain: GRKKYDIDPRNGIPKLTPGDNPYM

Variants of: B1
Experiment: protein stability index of a GFP-peptide fusion (GPS, HEK-293T) (PSI 1-6); higher = more stable;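 further: lentivirally expressed fusions sorted by FACS into six bins by GFP to DsRed ratio, PSI derived from sequencing read proportions per bin multiplied by bin number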
Settings: c terminus: a fixed tail appended
measurement-label: protein stability index
Output spec: single numeric token, no unit.

Record excerpt, results attached:
[[record]]
variant_name = "G1A"
numeric_result = 3.48

[[record]]
variant_name = "I7S"
numeric_result = 4.25

[[record]]
variant_name = "D6N"
numeric_result = 3.36


Moving on to another variant below.
The recorded protein stability index for entry `N11T` equals 3.46

// data source = the supplement of paper PMC10567573
